run-description: Pharmacokinetic study in ICR mice
Format: in vivo
experimental-context: mouse; male ICR mice, IP, 30 mg/kg, plasma
quantity: Tmax (h)

1) COc1ccc(-c2nc(-c3cc(C(F)(F)F)cc(C(F)(F)F)c3)n(Cc3ccc(C(=O)NCCOCCOCCOCCn4cc(COc5ccc(N(C(=O)CCl)C(C(=O)NCCc6ccccc6)c6cccs6)cc5Cl)nn4)cc3)c2-c2ccc(OC)cc2)cc1 (stereo not shown); 4

====

run-description: Pharmacokinetic study in ICR mice
Type: in vivo
experimental-context: mouse; male ICR mice, IP, 30 mg/kg, plasma
quantity: Cmax (ng/mL)

1. COc1ccc(-c2nc(-c3cc(C(F)(F)F)cc(C(F)(F)F)c3)n(Cc3ccc(C(=O)NCCOCCOCCOCCn4cc(COc5ccc(N(C(=O)CCl)C(C(=O)NCCc6ccccc6)c6cccs6)cc5Cl)nn4)cc3)c2-c2ccc(OC)cc2)cc1 (stereo not shown); 201
